# assay-system: human Claudin18.2 (human)
# procedure-details: cell-based or functional assay
measurement-type: CDC % Relative activity (%)
Expressed in %, but write only the number.

The recorded CDC % Relative activity for entry 243B4F7 (antibody, V domains shown) VH: QAYLQQSGAELVRSGASVKMSCKASGYTFTSHNLHWVKQTPGQGLEWIGYIYPGNGNTNYNQKFKGKATLTADTSSSTAYMQISSLTSEDSAVYFCTRDYYGNSFAYWGQGTLVTVSA VL: DIVMTQSPSSLTEKAGERVSMSCKSSQSLFNSGNQKNYLTWYQQKPGQPPKLLIYWASTRESGVPDRFTGSGSGTDFTLTISSVQAEDLAVYYCQNNYWFPFTFGAGTKLELK equals 149

The recorded CDC % Relative activity for entry 257G7B9 (antibody, V domains shown) VH: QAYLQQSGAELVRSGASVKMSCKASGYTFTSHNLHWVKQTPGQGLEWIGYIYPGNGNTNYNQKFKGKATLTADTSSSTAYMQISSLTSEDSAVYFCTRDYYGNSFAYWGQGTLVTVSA VL: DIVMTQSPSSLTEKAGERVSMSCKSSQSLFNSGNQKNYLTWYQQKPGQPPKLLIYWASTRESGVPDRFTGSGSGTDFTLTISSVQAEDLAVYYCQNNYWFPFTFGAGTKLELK equals 147

The recorded CDC % Relative activity for entry 194D3B2 (antibody, V domains shown) VH: QAYLQQSGAELVRSGASVKMSCKASGYPFTSYNMHWVKQTPGQGLEWVGYIYPGNGGTNYNQKFRDKATLTADTSSSTAYMQISRLTSDDSAVYFCLTGRGFAYWGQGTLVTVSA VL: DIVMTQSPSSLIVTPGERVTMSCKSSQSLLNSGNQKNYLTWYQQKPGQPPKLLIYRASTRESGVPDRFTGSGSGTDFTLTISSVQAEDLAVYYCQNDYSYPLTFGIGTKLELK equals 574

The recorded CDC % Relative activity for entry 219F9B8 (antibody, V domains shown) VH: QAYLQQSGAELVRSGASVRMSCKASGYTFTSYNMHWVKQTPGQGLEWIGYIYPGNGHTNYNQKFKGKATLTADTSSSTAYMQISSLTSEDSAVYFCATGRGFAYWGQGTLVTVSA VL: DIVMTQSPSSLTVTAGEKVTMSCKSSQSLLNSGNQKNYLTWYQQKPGQPPKLLIYRASTRESGVPDRFTGSGSGTDFTLTISSVQAEDLAVYYCQNDYSYPLTFGVGTKLELK equals 603

The recorded CDC % Relative activity for entry 260F8A6 (antibody, V domains shown) VH: QAYLQQSGAELVRSGASVKMSCRASGYTFTSHNMHWVKQTPGQGLEWIGYIYPGNGNTYYNQKFKGKATLTADTSSNTAYMQINSLTSEDSAVYFCVRDYYGNSFVYWGQGTLVTVSA VL: DVVMTQSPSSLTEKTGEKVSMSCKSSQSLLNSGNQKNYLTWYQQKPGQPPKLLIYWASTRESGVPDRFIGSGSGTDFTLTISSLQTEDLAVYYCQNNYMYPFTFGAGTKLELK equals 129
